- assaySystem: human PDE10A2 (Homo sapiens)
- Construct: The cytosolic supernatant of the lysate served as the enzyme
- assayName: PDE10 fluorescence polarization (IMAP FP) inhibition assay
- conditionParameters: apparent inhibition constant; FAM-labeled cAMP 50 nM; lysate of AD293 cells transfected with human PDE10A2; room temperature; read-out: PDE10a Ki
- Procedure: The activity of the compounds in accordance with the present invention as PDE10 inhibitors may be readily determined without undue experimentation using a fluorescence polarization (FP) methodology that is well known in the art (Huang, W., et al., J. Biomol Screen, 2002, 7: 215). In a typical experiment the PDE 10 inhibitory activity of the compounds of the present invention was determined in accordance with the following experimental method. […]
pKi: −log10 of the molar value.
Rule: Yes for pKi not less than 7, No for anything less.

Illustrative cases are given below, each with its answer.
[[record]]
compound = "COc1ccc(Cc2nc(N)nn2-c2cc(OCc3ccc(-c4ccncc4)cc3)ncn2)cc1OC"
assaysystem = "human PDE10A2 (Homo sapiens)"
cat = "No"

[[record]]
compound = "COc1ccc(Cc2nc(N)nn2-c2cc(OCC(C)(C)C)ncn2)cc1OC"
assaysystem = "human PDE10A2 (Homo sapiens)"
cat = "Yes"

[[record]]
compound = "CCCOc1cc(-n2nc(N)nc2Cc2ccc(OC)c(OC)c2)ncn1"
assaysystem = "human PDE10A2 (Homo sapiens)"
cat = "Yes"

[[record]]
compound = "COc1ccccc1COc1cc(-n2nc(N)nc2Cc2ccc(OC)c(OC)c2)ncn1"
assaysystem = "human PDE10A2 (Homo sapiens)"
cat = "No"

[[record]]
compound = "COc1ccc(Cc2nc(N)nn2-c2cc(OCc3ccccc3-c3cccs3)ncn2)cc1OC"
assaysystem = "human PDE10A2 (Homo sapiens)"
cat = "Yes"


# bool: pKi of `COc1ccc(Cc2nc(N)nn2-c2cc(=O)n(Cc3nc4ccccc4[nH]3)cn2)cc1OC` >= 7 No

# bool: pKi of COc1ccc(CNc2nc(Cc3ccc(OC)c(OC)c3)n(-c3cc(Oc4ccccn4)nc(C)n3)n2)cc1 [1-76] >= 7 Yes

* * *

- assaySystem: human PDE10A2 (Homo sapiens, UniProt Q9Y233)
- Construct: The cytosolic supernatant of the lysate served as the enzyme
- Sequence (Q9Y233 267-1055): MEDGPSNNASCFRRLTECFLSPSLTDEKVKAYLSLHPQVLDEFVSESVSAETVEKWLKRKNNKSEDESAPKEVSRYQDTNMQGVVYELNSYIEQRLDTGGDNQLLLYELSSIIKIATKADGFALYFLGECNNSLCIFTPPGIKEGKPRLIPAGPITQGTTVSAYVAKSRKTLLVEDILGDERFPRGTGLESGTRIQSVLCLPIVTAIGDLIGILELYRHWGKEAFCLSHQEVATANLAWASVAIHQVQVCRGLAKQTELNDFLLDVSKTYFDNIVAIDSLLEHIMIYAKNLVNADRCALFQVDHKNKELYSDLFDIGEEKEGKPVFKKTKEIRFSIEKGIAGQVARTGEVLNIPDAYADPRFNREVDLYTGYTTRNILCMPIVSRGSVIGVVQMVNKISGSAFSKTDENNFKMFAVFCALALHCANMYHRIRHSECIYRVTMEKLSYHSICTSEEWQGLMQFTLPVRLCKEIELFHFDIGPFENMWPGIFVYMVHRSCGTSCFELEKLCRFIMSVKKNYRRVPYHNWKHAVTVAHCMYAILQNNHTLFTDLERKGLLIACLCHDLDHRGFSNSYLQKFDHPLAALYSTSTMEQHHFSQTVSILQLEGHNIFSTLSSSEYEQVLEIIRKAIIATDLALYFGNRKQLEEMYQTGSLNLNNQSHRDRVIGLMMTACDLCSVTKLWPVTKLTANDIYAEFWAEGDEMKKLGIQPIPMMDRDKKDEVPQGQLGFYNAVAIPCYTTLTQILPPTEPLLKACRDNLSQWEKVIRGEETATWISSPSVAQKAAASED
- assayName: PDE10 fluorescence polarization (IMAP FP) inhibition assay
- conditionParameters: apparent inhibition constant; FAM-labeled cAMP 50 nM; lysate of AD293 cells transfected with human PDE10A2; room temperature; read-out: PDE10a Ki
measuredEndpoint: log10 Ki (log10 of the value in nM)
log10 Ki, nM

Please review the entries below; each comes with its answer.
[[record]]
molecule = "COc1ccc(COc2cc(-n3nc(N)nc3Cc3ccc(OC)c(OC)c3)ncn2)cc1"
assaysystem = "human PDE10A2 (Homo sapiens, UniProt Q9Y233)"
measuredendpoint = "log10 Ki"
reportedmeasurement = 2.74

[[record]]
molecule = "COc1ccc(Cc2nc(N)nn2-c2cc(OCCN3CCNC3=O)ncn2)cc1OC"
assaysystem = "human PDE10A2 (Homo sapiens, UniProt Q9Y233)"
measuredendpoint = "log10 Ki"
reportedmeasurement = 1.26

[[record]]
molecule = "COc1ccc(Cc2nc(N)nn2-c2cc(=O)n(Cc3ccc(-c4ccncc4)cc3)cn2)cc1OC"
assaysystem = "human PDE10A2 (Homo sapiens, UniProt Q9Y233)"
measuredendpoint = "log10 Ki"
reportedmeasurement = 2.73

[[record]]
molecule = "COc1ccc(Cc2nc(N)nn2-c2cc(OC(C)C)ncn2)cc1OC"
assaysystem = "human PDE10A2 (Homo sapiens, UniProt Q9Y233)"
measuredendpoint = "log10 Ki"
reportedmeasurement = 2.57

[[record]]
molecule = "COc1ccc(Cc2nc(N)nn2-c2cc(=O)n(CCc3cccs3)cn2)cc1OC"
assaysystem = "human PDE10A2 (Homo sapiens, UniProt Q9Y233)"
measuredendpoint = "log10 Ki"
reportedmeasurement = 1.36


Supply log10 Ki value. Item: COc1ccc(Cc2nc(N)nn2-c2cc(=O)n(CC3(c4ccccc4)CC3(F)F)cn2)cc1OC (stereo not shown) 2.34

Supply log10 Ki value. Item: `COc1ccc(Cc2nc(N)nn2-c2cc(=O)n(C(C)C)cn2)cc1OC` 2.73

* * *

- assaySystem: human PDE10A2 (Homo sapiens)
- Construct: The cytosolic supernatant of the lysate served as the enzyme
- assayName: PDE10 fluorescence polarization (IMAP FP) inhibition assay
- conditionParameters: apparent inhibition constant; FAM-labeled cAMP 50 nM; lysate of AD293 cells transfected with human PDE10A2; room temperature; read-out: PDE10a Ki
measuredEndpoint: pKi
Scale explanation: pKi corresponds to minus log10 of a concentration expressed in moles per litre.

Please review the entries below; each comes with its answer.
[[record]]
compound = "COc1ccc(CNc2nc(Cc3ccc(OC)c(OC)c3)n(-c3cc(Oc4ccccn4)nc(C)n3)n2)cc1 [1-80]"
assaysystem = "human PDE10A2 (Homo sapiens)"
reportedmeasurement = 6.31

[[record]]
compound = "COc1ccc(Cc2nc(N)nn2-c2cc(=O)n(Cc3ccccc3C(F)(F)F)cn2)cc1OC"
assaysystem = "human PDE10A2 (Homo sapiens)"
reportedmeasurement = 6.72

[[record]]
compound = "CCCn1cnc(-n2nc(N)nc2Cc2ccc(OC)c(OC)c2)cc1=O"
assaysystem = "human PDE10A2 (Homo sapiens)"
reportedmeasurement = 6.21

[[record]]
compound = "COc1ccc(Cc2nc(N)nn2-c2cc(C)cc(C)c2)cc1OC"
assaysystem = "human PDE10A2 (Homo sapiens)"
reportedmeasurement = 6.99

[[record]]
compound = "COc1ccc(CNc2nc(Cc3ccc(OC)c(OC)c3)n(-c3cc(Oc4cccnc4)nc(C)n3)n2)cc1"
assaysystem = "human PDE10A2 (Homo sapiens)"
reportedmeasurement = 6.00


Supply pKi value. Item: `COc1ccc(CNc2nc(Cc3ccc(OC)c(OC)c3)n(-c3cc(C#Cc4ccccn4)nc(C)n3)n2)cc1` 7.72

Supply pKi value. Item: `COc1ccc(Cc2nc(N)nn2-c2ccccn2)cc1OC` 6.60

Supply pKi value. Item: `COc1ccc(Cc2nc(N)nn2-c2cc(Oc3ccc4ccccc4n3)nc(C)n2)cc1OC` 7.33

Supply pKi value. Item: `COc1ccc(CNc2nc(Cc3ccc(OC)c(OC)c3)n(C)n2)cc1` 7.61

Supply pKi value. Item: `COc1ccc(Cc2nc(N)nn2-c2cc(OCc3cncc(N4CCNCC4)n3)ncn2)cc1OC` 6.24

Supply pKi value. Item: `COc1ccc(Cc2nc(N)nn2-c2cc(OCc3nc4ccccc4[nH]3)ncn2)cc1OC` 7.72

Supply pKi value. Item: `COc1ccc(Cc2nc(N)nn2-c2cc(=O)n(CC3CCC3)cn2)cc1OC` 6.19

Supply pKi value. Item: `COc1ccc(Cc2nc(N)nn2-c2cc(OCC3CCC3)ncn2)cc1OC` 8.07

Supply pKi value. Item: COc1ccc(Cc2nc(N)nn2-c2cc(OCC3(c4ccccc4)CC3(F)F)ncn2)cc1OC (stereo not drawn) 8.25

Supply pKi value. Item: COc1ccc(Cc2nc(N)nn2-c2cc(OCC3CC3c3ccccc3)ncn2)cc1OC (stereo not drawn) 6.49

Supply pKi value. Item: `COc1ccc(Cc2nc(N)nn2-c2cc(=O)n(Cc3cnc(N4CCNCC4)cn3)cn2)cc1OC` 7.43

Supply pKi value. Item: `COc1ccc(CNc2nc(Cc3ccc(OC)c(OC)c3)n(-c3ccccn3)n2)cc1` 6.11

* * *

Reported values of pKi for individual entries
- assaySystem: human PDE10A2 (Homo sapiens)
- Construct: The cytosolic supernatant of the lysate served as the enzyme
- assayName: PDE10 fluorescence polarization (IMAP FP) inhibition assay
- conditionParameters: apparent inhibition constant; FAM-labeled cAMP 50 nM; lysate of AD293 cells transfected with human PDE10A2; room temperature; read-out: PDE10a Ki
Scale explanation: pKi corresponds to minus log10 of a concentration expressed in moles per litre.

Please review the entries below; each comes with its answer.
[[record]]
compoundsmiles = "COc1ccc(Cc2nc(N)nn2-c2cc(=O)n(CCN3CCNC3=O)cn2)cc1OC"
reportedmeasurement = 6.96

[[record]]
compoundsmiles = "COc1ccc(Cc2nc(N)nn2-c2cc(OCc3cn4ccccc4n3)ncn2)cc1OC"
reportedmeasurement = 6.74

[[record]]
compoundsmiles = "COc1ccc(Cc2nc(N)nn2-c2cc(=O)n(Cc3ccc4ccccc4n3)cn2)cc1OC"
reportedmeasurement = 7.19


Supply pKi value. Item: `COc1ccc(Cc2nc(N)nn2-c2cc(OC3Cc4ccccc4C3)ncn2)cc1OC` 6.01

Supply pKi value. Item: `COc1ccc(Cc2nc(N)nn2-c2cc(OCc3ccc4ccccc4c3)ncn2)cc1OC` 7.27

* * *

- assaySystem: human PDE10A2 (Homo sapiens)
- Construct: The cytosolic supernatant of the lysate served as the enzyme
- assayName: PDE10 fluorescence polarization (IMAP FP) inhibition assay
- conditionParameters: apparent inhibition constant; FAM-labeled cAMP 50 nM; lysate of AD293 cells transfected with human PDE10A2; room temperature; read-out: PDE10a Ki
Reported values of Ki for individual entries
Reply numerically in nM, unit not repeated.

Please review the entries below; each comes with its answer.
[[record]]
molecule = "COc1ccc(Cc2nc(N)nn2-c2cc(OC3CCCCC3)ncn2)cc1OC [1-61]"
assaysystem = "human PDE10A2 (Homo sapiens)"
reportedmeasurement = 19

[[record]]
molecule = "COc1ccc(Cc2nc(N)nn2-c2cc(=O)n(Cc3cn4ccccc4n3)cn2)cc1OC [1-55]"
assaysystem = "human PDE10A2 (Homo sapiens)"
reportedmeasurement = 650

[[record]]
molecule = "COc1ccc(Cc2nc(N)nn2-c2cc(OCc3ccc4ccccc4n3)ncn2)cc1OC [1-68]"
assaysystem = "human PDE10A2 (Homo sapiens)"
reportedmeasurement = 760

[[record]]
molecule = "COc1ccc(CNc2nc(Cc3ccc(OC)c(OC)c3)n(-c3ccccc3)n2)cc1 [1-10]"
assaysystem = "human PDE10A2 (Homo sapiens)"
reportedmeasurement = 146


--- query ---
Supply Ki value. Item: COc1ccc(Cc2nc(N)nn2-c2cc(Oc3cccnc3)nc(C)n2)cc1OC [1-79] 130
